Data origin: patent EP1596818B1

- TEST: B16 melanoma cell test for whitening effect (inhibition of melanin production)
- Assay type: cell-based, Mäusen
- CONDITIONS: mouse, b16 melanoma cells, Wirkstoff-Gehalt 2,5 mg/ml Lösung; cell number relative to control (1,00); read-out: Relativwert
ENDPOINT LABEL: viability at 144 h
Phrase the answer as number then unit, nothing more needed.

Record request: viability at 144 h value, item CC(=O)C1C(=O)C=C(C)OC1=O (stereo not shown) 86%

---

- TEST: B16 melanoma cell test for whitening effect (inhibition of melanin production)
- Assay type: cell-based, Mäusen
- CONDITIONS: mouse, b16 melanoma cells, Wirkstoff-Gehalt 1,25 mg/ml Lösung; cell number relative to control (1,00); read-out: Relativwert
ENDPOINT LABEL: viability at 144 h (%)
Your answer is read as %, so omit the unit and give the number.

Record request: viability at 144 h value, item CC(=O)C1C(=O)C=C(C)OC1=O (stereo not shown) [Methyl-ADAPD] 92
